Tested on: A2780/WT cells
measurement_notes: cells
Format: cell-based, human
run_parameters: Homo sapiens, average of Tests 1-6, read-out: IC50 Average
Description: Wild type human ovarian cancer cells (A2780/WT) and doxorubicin-resistant human ovarian cancer cells (A2780/DX5) were cultured in RPMI 1640 medium supplemented with 10% fetal bovine serum and 2 mM glutamine, and grown in a 37° C. incubator with 5% CO2. […]
parameter: pIC50
Numbers only, as −log10 of the molar value.

What the record says about CC[C@@]1(O)C(=O)OCc2c1cc1n(c2=O)Cc2cc3c(CN(C)C)c(O)ccc3nc2-1 [Topotecan] : pIC50 is 6.31

###

Hi there, I'd appreciate the recorded IC50 for every entry that follows.
System: A2780/WT cells
measurement_notes: cells
Format: cell-based, human
run_parameters: 2 hour drug treatment, SRB at 5 days, read-out: IC50 Test 4
One number for each entry, in nM.

What the record says about CC[C@@]1(O)C(=O)OCc2c1cc1n(c2=O)Cc2cc3c(N)cccc3nc2-1 : IC50 is 200

Attention now shifts to the item below.
What the record says about CC[C@@]1(O)C(=O)OCc2c1cc1n(c2=O)Cc2c-1nc1ccccc1c2CC[Si](C)(C)C : IC50 is 20

###

Tested on: A2780/DX5 cells
measurement_notes: cells
Format: cell-based, human
run_parameters: 2 hour drug treatment, SRB at 5 days, read-out: IC50 Test 4
Hi there, I'd appreciate the recorded IC50 for every entry that follows.
One number for each entry, in nM.

What the record says about CC[C@@]1(O)C(=O)OCc2c1cc1n(c2=O)Cc2c-1nc1ccccc1c2CC[Si](C)(C)C [BNP1350] : IC50 is 24

***
What the record says about CC[C@@]1(O)C(=O)OCc2c1cc1n(c2=O)Cc2cc3c(N)cccc3nc2-1 [9-NH2-camptothecin, 9-amino camptothecin] : IC50 is 550

###

System: A2780/DX5 cells
measurement_notes: cells
Format: cell-based, human
run_parameters: Homo sapiens, 2 hour drug treatment, SRB at 5 days, read-out: IC50 Test 4
parameter: pIC50
Give bare numbers, as −log10 of the molar value.

Measured pIC50 (A2780/DX5 cells), entry CC[C@@]1(O)C(=O)OCc2c1cc1n(c2=O)Cc2cc3c(CN(C)C)c(O)ccc3nc2-1 : 6.00

###

Hi there, I'd appreciate the recorded pIC50 for every entry that follows.
Test system: A2780/WT cells
measurement_notes: cells
Assay type: cell-based, human
run_parameters: 2 hour drug treatment, SRB at 5 days, read-out: IC50 Test 3
Give bare numbers, as −log10 of the molar value.

What the record says about CC[C@@]1(O)C(=O)OCc2c1cc1n(c2=O)Cc2c-1nc1ccccc1c2CC[Si](C)(C)C [BNP1350] : pIC50 is 7.82

Attention now shifts to the item below.
What the record says about CC[C@@]1(O)C(=O)OCc2c1cc1n(c2=O)Cc2cc3c(N)cccc3nc2-1 [9-NH2-camptothecin, 9-amino camptothecin] : pIC50 is 6.82

###

Test system: A2780/DX5 cells
measurement_notes: cells
Format: cell-based, human
run_parameters: Homo sapiens, 2 hour drug treatment, SRB at 5 days, read-out: IC50 Test 5
Method: Wild type human ovarian cancer cells (A2780/WT) and doxorubicin-resistant human ovarian cancer cells (A2780/DX5) were cultured in RPMI 1640 medium supplemented with 10% fetal bovine serum and 2 mM glutamine, and grown in a 37° C. incubator with 5% CO2. […]
parameter: IC50
// return the numeric value with its unit appended

What the record says about CC[C@@]1(O)C(=O)OCc2c1cc1n(c2=O)Cc2cc3c(CN(C)C)c(O)ccc3nc2-1 : IC50 is 2000 nM
